D(3) dopamine receptor (Homo sapiens) data, read-out Ki
Sequence (P35462 whole entry): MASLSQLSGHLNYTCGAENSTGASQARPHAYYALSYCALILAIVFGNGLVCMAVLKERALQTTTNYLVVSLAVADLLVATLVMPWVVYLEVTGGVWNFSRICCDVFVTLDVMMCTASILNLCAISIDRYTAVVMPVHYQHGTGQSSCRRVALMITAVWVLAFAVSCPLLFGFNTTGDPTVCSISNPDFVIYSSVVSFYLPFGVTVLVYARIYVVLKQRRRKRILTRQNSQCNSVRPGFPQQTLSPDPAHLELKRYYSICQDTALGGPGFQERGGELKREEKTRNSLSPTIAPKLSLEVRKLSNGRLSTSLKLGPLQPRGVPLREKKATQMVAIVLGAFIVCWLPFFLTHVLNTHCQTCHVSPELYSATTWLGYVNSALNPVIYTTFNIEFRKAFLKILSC
OBSERVED_PROPERTY: Ki (nM)

smiles_representation=COc1ccc(-n2cc(C(=O)NCCCCN3CCN(c4cccc(Cl)c4Cl)CC3)nn2)cc1 readout_number=4.9
smiles_representation=COc1ccccc1N1CCN(CCNC(=O)c2cn(-c3ccc([N+](=O)[O-])cc3)nn2)CC1 readout_number=4.9

====

EXPERIMENT_SUMMARY: Binding affinity to pig alpha-1 adrenergic receptor
Set-up: species or system Sus scrofa
# maps each entry to its Ki
OBSERVED_PROPERTY: Ki

smiles_representation=COc1ccc(-n2cc(CCCC(=O)NCCCCN3CCN(c4cccc(Cl)c4Cl)CC3)nn2)cc1 result="42 nM"
smiles_representation=O=C(CCCc1cn(-c2ccc([N+](=O)[O-])cc2)nn1)NCCCCN1CCN(c2cccc(Cl)c2Cl)CC1 result="28 nM"
smiles_representation=COc1ccc(-n2cc(C(=O)NCCCCN3CCN(c4cccc(Cl)c4Cl)CC3)nn2)cc1 result="46 nM"
smiles_representation=O=C(NCCCCN1CCN(c2cccc(Cl)c2Cl)CC1)c1cn(-c2ccc([N+](=O)[O-])cc2)nn1 result="17 nM"
smiles_representation=COc1ccccc1N1CCN(CCNC(=O)c2cn(-c3ccc([N+](=O)[O-])cc3)nn2)CC1 result="6.5 nM"
